test system: HCT-116 colon; assay: NCI tumour cell line growth inhibition, 48 h
reported-endpoint: GI50

Record excerpt, results attached:
O=C(CCN1CCCN(c2cnc3ccccc3n2)CC1)c1csc2ccccc12	16.5 µM
CC(=O)Nc1cc2c3c(cccc3c1)-c1ccccc1-2	> 100 µM

Working through the 6 molecules below one at a time, give GI50 for each.
1. COc1ccc(/C=C\c2cc(OC)c(OC)c(OC)c2)c(NS(=O)(=O)c2ccc(F)cc2)c1O
2. O=C(CN1CCN(C(=O)c2ccco2)CC1)Nc1ccc(Cl)cc1C(=O)c1ccccc1Cl
3. O=C(NN1C(=O)CSC1c1c(Cl)cccc1Cl)C(O)c1ccccc1 (stereo not drawn)
4. O=C(/C=C/C=C/c1ccc2c(c1)OCO2)N/N=C\c1ccc(O)cc1O
5. COC(=O)c1c2c(c(C)[n+]([O-])c1C)C(=O)C(NCc1ccc(O)cc1)=CC2=O
6. C[C@]12CC[C@H]3[C@@H](CC[C@]4(O)C[C@@H](O[C@@H]5O[C@H](CO)[C@@H](O[C@@H]6OC[C@@H](O)[C@H](O)[C@H]6O)[C@H](O)[C@H]5O)CC[C@]34C=O)[C@@]1(O)CC[C@@H]2C1=CC(=O)OC1

(A)
0.0428 µM
13 µM
36.7 µM
2.02 µM
0.333 µM
1.47 µM

----------
Record form. Attribute: TGI. Fill in for each entry.
system: UACC-257 melanoma; assay: NCI tumour cell line growth inhibition, 48 h
Answers are plain numbers, in µM.

# count of solved cases: 4
COc1cc(C(=O)NN=C2c3ccccc3-c3ccccc32)cc(OC)c1OC	34.2
OCC1OC(n2cnc3c(Cl)nc(Nc4ccc(Cl)c(Cl)c4)nc32)CC1O (configuration not stated)	20
COc1ccc(/C=C/C(=O)/C=C(O)/C=C/c2ccc(OC)c(OC)c2)cc1OC	64.8
COc1ccc2nc3ccccc3c(NCCN(CCCl)CCCl)c2c1	3.99

Let's switch to this compound now.
(Q) What measured TGI goes with `Cc1cccc(N=N/C(=N\NC(=O)c2cc(Cl)ccc2O)c2ccc(N(CCC#N)CCC#N)cc2C)c1` ?
(A) 97.6

----------
test system: OVCAR-4 ovarian; assay: NCI tumour cell line growth inhibition, 48 h
reported-endpoint: TGI

Check out these entries, answers already filled in.
Nc1n[nH]c2ccc([C@@H]3Nc4ccc5cn[nH]c5c4[C@H]4C5CCC(C5)[C@@H]34)cc12 (stereo not given in full)	> 100 µM
[O-][N+]1=C2CCC/C(=N/O)C2(O)C2CCCCC21N1CCOCC1 (stereo not given)	> 100 µM
C#CCNC(=O)CC[C@@H](C)[C@H]1CC[C@H]2[C@@H]3CC[C@@H]4CC(=O)CC[C@]4(C)[C@H]3CC[C@]12C	52.6 µM
Nc1nc(N)c2c(n1)CCC(S(=O)(=O)c1ccc3ccccc3c1)C2 (stereo not given)	> 100 µM
Cc1cccc(-c2nc(-c3cnccn3)n(Cc3ccccc3)n2)c1	> 100 µM
CC#CC#C/C=C1\C=CC2(OC=CC2O)O1 (stereo not given)	> 23.3 µM
CN(C)CCCCNc1ccc(NCCCCN(C)C)c2c1C(=O)c1c(O)ccc(O)c1C2=O	2.76 µM
C=C(C)COc1cc(NC(=S)OC(C)C)ccc1Cl	28.3 µM

Count: 3. Required value per item: TGI.
1. CN1CCN(c2n[nH]c(=O)c3c2nnn3C2CCCCC2)CC1
2. CC(=O)Nc1cc2c3c(cccc3c1)-c1ccccc1-2
3. COc1cc(OC)c(/C=N\Nc2nc3ccccc3c(=O)n2-c2ccccc2)c(OC)c1

(A)
> 100 µM
> 100 µM
> 86.1 µM

Give TGI for each of the items listed below.
1. COc1cccc(/C=N/[N-]C(N)=O)c1[O-].[Co+2].[OH3+].c1ccncc1
2. COc1ccc(-c2cc(=O)c3cc(O)ccc3o2)c(OC)c1OC
3. CC(C)=CCc1cc(/C=C/C(=O)O)cc(CC=C(C)C)c1O

(A)
1: > 100 µM; 2: > 100 µM; 3: > 100 µM
